# Maximum (RLU), Jurkat-NFAT-hPD1 reporter per record follows
# measured-target: human PD-L1 (human, UniProt Q9NZQ7 19-290)
# Sequence (Q9NZQ7 19-290): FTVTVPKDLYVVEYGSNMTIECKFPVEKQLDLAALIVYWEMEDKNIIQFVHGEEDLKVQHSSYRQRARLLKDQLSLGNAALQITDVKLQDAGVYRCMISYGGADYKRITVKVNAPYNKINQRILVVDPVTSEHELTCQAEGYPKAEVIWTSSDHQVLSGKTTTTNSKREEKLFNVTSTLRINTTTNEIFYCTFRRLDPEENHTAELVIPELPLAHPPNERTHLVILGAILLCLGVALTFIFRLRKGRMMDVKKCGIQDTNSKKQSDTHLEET
# assay-protocol: cell-based or functional assay
Please reply with the bare figure in RLU and do not write the unit itself.

So, PR006245 (antibody, human IgG1, V domains shown, HCAb; human IgG1 Fc; no light chain) VH: QVQLVESGGGVVQPGMSLRLSCAASGFDFSSYGMYWVRQAPGKGQEWVASIRYTGTEKHYADSVKGRFTISRDNSKNTLYLEMNSLRVEDTAVYYCAKNRAIFGVVPDASDIRGQGTMVTVSS ? Its Maximum (RLU), Jurkat-NFAT-hPD1 reporter was 13800
